Numbers sourced from patent US20050171119A1.

Assay: Administration of 60 mg IR efletirizine gelatin capsule: influence of a meal
Format: in vivo, patients
Conditions: human, in vivo, oral, 60 mg, 60 mg gelatin capsule; after a standardized fatty meal
Description: A gelatin capsule containing 60 mg of efletirizine was administered to 20 fasting patients and to 22 patients who had eaten a standardized fatty meal beforehand.
Readout: AUC (ng·h/mL)

Compound Smiles	Numeric Result
O=C(O)COCCN1CCN(C(c2ccc(F)cc2)c2ccc(F)cc2)CC1	5780

====

test: Crossover trial: 10 mg IR solution plus 25 mg PR tablet J, fasting or after a meal, vs 15 mg IR solution twice; format: in vivo, human volunteers; settings: human, plasma, oral, 15 mg, IR solution 15 mg × 2, 12-hour interval; second dose; read-out: Cmax (2)
Readout: Cmax

Compound	Result
O=C(O)COCCN1CCN(C(c2ccc(F)cc2)c2ccc(F)cc2)CC1 [efletirizine]	305 ng/mL

====

Experiment: Crossover trial: 10 mg IR solution plus 25 mg PR tablet J, fasting or after a meal, vs 15 mg IR solution twice
Format: in vivo, human volunteers
Conditions: human, plasma, oral, 15 mg, IR solution 15 mg × 2, 12-hour interval; first dose; read-out: Cmax (1)
Experimental: In a crossover trial, 12 volunteers received 3 types of treatments: • 10 mg of IR efletirizine in the form of a solution and one PR tablet of 25 mg of efletirizine (J) while fasting; • 10 mg of IR efletirizine in the form of a solution and one PR tablet of 25 mg of efletirizine (J) after a standardized fatty meal; • 15 mg of IR efletirizine in the form of a solution, taken twice with a 12-hour interval The first 3 components are granulated. The last 3 are then added and the mixture is compressed. […]
Readout: Cmax (ng/mL)

Compound Smiles	Numeric Result
O=C(O)COCCN1CCN(C(c2ccc(F)cc2)c2ccc(F)cc2)CC1	307

====

experiment: Administration of 60 mg IR efletirizine gelatin capsule: influence of a meal; type: in vivo, patients; settings: human, in vivo, oral, 60 mg, 60 mg gelatin capsule; after a standardized fatty meal
Readout: Tmax (h)

Compound Smiles	Readout	Unit	Numeric Result
O=C(O)COCCN1CCN(C(c2ccc(F)cc2)c2ccc(F)cc2)CC1	Tmax	h	3.03

====

assay: Administration of 2 times 15 mg of efletirizine in solution with a 12-hour interval; type: in vivo, healthy volunteers; conditions: human, plasma, oral, 15 mg, 2 times 15 mg in solution, first dose, read-out: tmax (1)
Readout: Tmax (min)

Compound	Readout	Numeric Result
O=C(O)COCCN1CCN(C(c2ccc(F)cc2)c2ccc(F)cc2)CC1 [efletirizine]	Tmax	36

====

experiment: Crossover trial: 10 mg IR solution plus 25 mg PR tablet J, fasting or after a meal, vs 15 mg IR solution twice; assay type: in vivo, human volunteers; settings: human, plasma, oral; IR solution 15 mg × 2, 12-hour interval

Compound Smiles	Unit	AUC
O=C(O)COCCN1CCN(C(c2ccc(F)cc2)c2ccc(F)cc2)CC1	ng·h/mL	2800

====

experiment: Crossover trial: 10 mg IR solution plus 25 mg PR tablet J, fasting or after a meal, vs 15 mg IR solution twice; type: in vivo, human volunteers; settings: human, plasma, oral, 15 mg, IR solution 15 mg × 2, 12-hour interval; second dose; read-out: tmax (2)

Compound Smiles	Tmax (h)
O=C(O)COCCN1CCN(C(c2ccc(F)cc2)c2ccc(F)cc2)CC1	12.6
